# System: CEM (human lymphoblastoid leukemia)
# protocol.description: In vitro cytotoxic activity, Calcein AM
# Assay type: cell-based
# condition.info: Homo sapiens, 72 h, three days
# From the text: We have been using the following cell lines: HELA (human cervical carcinoma), MCF7 (human breast adenocarcinoma), NIH 3T3 (mouse fibroblasts), HOS (human osteogenic sarcoma), HL 60 (human promyelocytic leukemia), G 361 (human malignant melanoma), K562 (human erythroleukemia), CEM (human lymphoblastoid leukemia). […] Fluorescence of viable cells was quantified employing Fluoroskan Ascent (Microsystems).
endpoint.label: GI50 (µM)
Only the number, expressed in µM, is required.

compound	uom	GI50
CC(=O)Oc1cccc(CNc2nc(N[C@@H](CO)C(C)C)nc3c(C(C)C)n[nH]c23)c1	µM	12.5
CC(C)c1n[nH]c2c(N(C)CCc3ccc(O)c(O)c3)nc(N[C@@H](CO)C(C)C)nc12	µM	8.4
CC[C@H](CO)Nc1nc(NCc2ccccc2)c2n[nH]c(C(C)C)c2n1	µM	2.4
COc1cc(O)c(CNc2nc(NCCO)nc3c(C)n[nH]c23)cc1O	µM	4.2
CC[C@H](CO)Nc1nc(NCc2cccc(C(C)=O)c2)c2[nH]nc(C(C)C)c2n1	µM	11.5

Recorded result, CC(=O)c1cccc(CNc2nc(N[C@@H](CO)C(C)C)nc3c(C(C)C)n[nH]c23)c1 , GI50: 8.6

# credit: patent US7745450B2
